Target: prothrombin (Homo sapiens, UniProt P00734 P00734:44-622)
Assay: filter; 50 nM prothrombin
Details: tags: Athens Research
measured_metric: binding signal (% bound)
Field format: number, assumed % bound, no unit text.

These recorded examples may help you get a feel for the data.
- binder: "TCCCTATCGACCGGGGTTCTTTCGTGGTTCGGGTGGCTGAGGATCGATC (ssDNA) [AMX(398)_E8]"
  measured_metric: "binding signal"
  scale_unit: "% bound"
  measured: 26.7
- binder: "TCCCGATCGGTCCCAAGGGTATTGTTGGTTTGGGTGGCTGAGGATCGATC (ssDNA) [AMX(399)_F7]"
  measured_metric: "binding signal"
  scale_unit: "% bound"
  measured: 34.2
- binder: "TCCCATCGATCAGTGGTGGCTTGGCTGGTTTGGGTGGCTGAGGATCGATC (ssDNA) [AMX(399)_G6]"
  measured_metric: "binding signal"
  scale_unit: "% bound"
  measured: 38.6
- binder: "TCCCGCGATCTCTGGGGTAACGTTTTGGTGTGGGTGGCTGAGGATCGATC (ssDNA) [AMX(399)_D3]"
  measured_metric: "binding signal"
  scale_unit: "% bound"
  measured: 25.3
- binder: "TCCCGAGCGATACTGCCTAGGCTGGGTAGGGTGGTGGCTGAGGATCGATC (ssDNA) [AMX(398)_C10]"
  measured_metric: "binding signal"
  scale_unit: "% bound"
  measured: 40.9

Now consider the entry below.
// TCTCGATCGGACGTGGTGGGTTACTGGCTTGGGTGGCTGAGGATCGATC (ssDNA) [AMX(399)_D8] : binding signal value = 19.6
